B1: NCK2 (parent)
chain: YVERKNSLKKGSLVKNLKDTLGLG

# Variants of: B1
# Experimental Protocol: protein stability index of a GFP-peptide fusion (GPS, HEK-293T) (PSI 1-6); higher = more stable;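 also: lentivirally expressed fusions sorted by FACS into six bins by GFP to DsRed ratio, PSI derived from sequencing read proportions per bin multiplied by bin number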
# Condition Notes: c terminus: a fixed tail appended
Measured Endpoint: protein stability index

For record R4K the listed protein stability index is 2.46

For record K18H the listed protein stability index is 2.6

For record V14N the listed protein stability index is 2.44

For record V14K the listed protein stability index is 2.25

For record S12T the listed protein stability index is 2.01

For record G22T the listed protein stability index is 2.37

For record K10Q the listed protein stability index is 2.59

For record T20E the listed protein stability index is 2.17

For record K10M the listed protein stability index is 1.94

For record L21A the listed protein stability index is 2.4

For record T20H the listed protein stability index is 1.75

For record K18R the listed protein stability index is 2.46

For record K10P the listed protein stability index is 1.88

For record G24K the listed protein stability index is 2.13

For record K18V the listed protein stability index is 2.42

For record K15L the listed protein stability index is 2.36

For record K10I the listed protein stability index is 1.89

For record G24I the listed protein stability index is 1.8

For record T20F the listed protein stability index is 1.75

For record K9T the listed protein stability index is 2.17

For record K15G the listed protein stability index is 2.49

For record G11N the listed protein stability index is 2.4

For record E3Q the listed protein stability index is 1.96

For record K9Y the listed protein stability index is 2.28

For record Y1P the listed protein stability index is 3.8

For record N16S the listed protein stability index is 2.16

For record K15Y the listed protein stability index is 1.91

For record L13V the listed protein stability index is 2.64

For record D19W the listed protein stability index is 2.35

For record V2W the listed protein stability index is 2.49

For record L13S the listed protein stability index is 2.54

For record K5G the listed protein stability index is 2.34

For record L13M the listed protein stability index is 2.22

For record Y1T the listed protein stability index is 3.65

For record L21C the listed protein stability index is 2.71

For record K18F the listed protein stability index is 1.33

For record R4P the listed protein stability index is 2.2

For record N16G the listed protein stability index is 2.3

For record D19F the listed protein stability index is 2.24

For record S12R the listed protein stability index is 2.22

For record K5N the listed protein stability index is 2.4

For record R4Y the listed protein stability index is 1.33

For record K10A the listed protein stability index is 2.11

For record G22H the listed protein stability index is 2.01

For record K9H the listed protein stability index is 2.1

For record L8Q the listed protein stability index is 2.88
